B1: Protein S100-G, residues 1 to 79; numbered along this chain, P02633 (parent)
chain: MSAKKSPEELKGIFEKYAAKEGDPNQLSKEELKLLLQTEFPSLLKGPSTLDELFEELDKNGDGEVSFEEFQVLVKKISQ

# Variants of: B1
# assayName: abundance fitness (aPCA) (normalised: wild type 0, dead -1); higher = more abundant; growth selection in yeast, the domain comes from the species named
# protocolConditions: Bos taurus
Use -0.1 as the dividing line for abundance fitness, with the line itself on the yes (1) side and lower values as no (0).

Request: API: above_or_equal(metric=abundance fitness, cutoff=-0.1) for item L73F
Result: no (0)

Request: API: above_or_equal(metric=abundance fitness, cutoff=-0.1) for item D62I
Result: yes (1)

Request: API: above_or_equal(metric=abundance fitness, cutoff=-0.1) for item S28D
Result: yes (1)

Request: API: above_or_equal(metric=abundance fitness, cutoff=-0.1) for item E9Y
Result: yes (1)

Request: API: above_or_equal(metric=abundance fitness, cutoff=-0.1) for item L27A
Result: no (0)

Request: API: above_or_equal(metric=abundance fitness, cutoff=-0.1) for item Q79T
Result: yes (1)

Request: API: above_or_equal(metric=abundance fitness, cutoff=-0.1) for item E64L
Result: yes (1)

Request: API: above_or_equal(metric=abundance fitness, cutoff=-0.1) for item E9I
Result: no (0)

Request: API: above_or_equal(metric=abundance fitness, cutoff=-0.1) for item K5T
Result: yes (1)

Request: API: above_or_equal(metric=abundance fitness, cutoff=-0.1) for item G12V
Result: yes (1)

Request: API: above_or_equal(metric=abundance fitness, cutoff=-0.1) for item K11H
Result: no (0)

Request: API: above_or_equal(metric=abundance fitness, cutoff=-0.1) for item I13F
Result: no (0)
